- experimental protocol: qHTS Assay for inhibitors of the human cytomegalovirus (HCMV)
- measurement conditions: HFF cells, HCMV-luciferase reporter, 72 h; at 57.5 µM
Hit rate of the full screen: of about 410,000 compounds, about 18,000 (4.4%) were called active. Not shown: some 7% with an inconclusive outcome. No stated cut-off is given here; in the data, active means activity change below about -60%; inconclusive means no clear call, values can overlap the other calls; inactive means above about -39%. The sample holds actives, similar compounds and a random draw of the others, so the mix is not that of the screen.
Could you please pick one outcome from this set? active, inactive

Please review the entries below; each comes with its answer.
Test call, this molecule: Cc1cc(C(=O)NC2CCCc3c2cnn3-c2cccc(C)c2C)c(C)o1 (stereo not given)
active

Check the results log: what was the call for COc1cccc(C(=O)Nc2c3c(nn2-c2cccc(C)c2C)CS(=O)(=O)C3)c1OC ?
inactive

Call for entry Cc1cc(NC(=O)CSc2ncc(C(=O)Nc3ccc(Cl)cc3)c(=O)n2C)no1 :
inactive

Which outcome was assigned to COc1ccc(C(=O)NC2CCCc3c2cnn3-c2cccc(C)c2C)c(OC)n1 (stereo not given) in this test?
active

Turning now to a further record.
Hi, sorry to bother you, what did the test record for COc1cc(C(=O)Nc2ccc(OCc3cc(=O)n4ccc(C)cc4n3)cc2)cc(OC)c1OC ?
inactive

The reported measurements were obtained from PubChem BioAssay AID1259415.
